- targetSystem: GRIP2_2, Q9C0E4
- Sequence (Q9C0E4 137-245): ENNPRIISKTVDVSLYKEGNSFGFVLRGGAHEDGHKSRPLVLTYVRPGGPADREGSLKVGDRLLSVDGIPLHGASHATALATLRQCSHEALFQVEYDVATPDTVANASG
- experimentNotes: holdup assay
- Design: key: below the threshold = too weak to quantify, mostly under pKd 3.1 to 4
- conditionDescription: plain residues with an end cap or a label only (N-terminal biotin on a linker: ttds)
measurementLabel: pKd

binder="RLPKIKETTV [FRMPD4, Q14CM0]" measurementlabel=pKd recordedvalue="below the threshold"
binder="QRQARSETLV [HPV59-E6, Q81964]" measurementlabel=pKd recordedvalue="below the threshold"
binder="RPLPRKVSQL [DOCK4, Q8N1I0]" measurementlabel=pKd recordedvalue=4.25
binder="RLQRRRETQV [HPV18-E6, P06463]" measurementlabel=pKd recordedvalue=4.48
binder="SSLQSLETSV [ATP2B4, P23634]" measurementlabel=pKd recordedvalue="below the threshold"
binder="SGSRPSATVV [HPV73-E6, Q82005]" measurementlabel=pKd recordedvalue="below the threshold"

Now let's try a different one.
(Q) Give its pKd value. Item: RHTTSTETAV [HPV30-E6, P36809]
(A) below the threshold
